assay target: T1, laminin-211 (human, UniProt P24043 23-3122; P07942 22-1786; P11047 34-1609)
T1 construct: Full-length recombinant human laminin isoform (BioLamina); chains read from the isoform name
assay notes: ELISA, GF coated, laminin 10 nM

[
  {
    "binder": "platelet-derived growth factor (PDGF)-BB (ligand, human, UniProt P01127 82-190, looked up, mature; Purchased in mature form) SLGSLTIAEPAMIAECKTRTEVFEISRRLIDRTNANFLVWPPCVEVQRCSGCCNNRNVQCRPTQVQLRPVQVRKIEIVRKKPIFKKATVTLEDHLACKCETVAAARPVT",
    "binding result": "binds"
  },
  {
    "binder": "bone morphogenetic protein (BMP)-2 (ligand, UniProt P12643 283-396, looked up, mature) QAKHKQRKRLKSSCKRHPLYVDFSDVGWNDWIVAPPGYHAFYCHGECPFPLADHLNSTNHAIVQTLVNSVNSKIPKACCVPTELSAISMLYLDENEKVVLKNYQDMVVEGCGCR",
    "binding result": "binds"
  }
]
